Recorded values, source patent US7417156B2.

- Tested on: MDA-MB231/ATCC
- testProtocol: NCI 60 cell line panel screen (SRB)
- Type: cell-based, human
- measurementSetup: Breast Cancer, MDA-MB231/ATCC
Rule: Log10GI50 below -7 gives fulfilled. Equal to or above -7 gives not fulfilled.

Solved entries (count: 4):
compound="CC(=O)O[C@H]1C(=O)[C@@]2(C)[C@H]([C@H](OC(=O)c3ccccc3)[C@]3(O)C[C@H](OC(=O)[C@H](O)[C@@H](NC(=O)c4ccccc4)c4ccccc4)C(C)=C1C3(C)C)[C@]1(OC(C)=O)CO[C@@H]1C[C@@H]2O [Paclitaxel, paclitaxel, reference compound]" classassignment=fulfilled
compound="CC1CCC2C(C)C(CC(COC(=O)c3cc[n+]([O-])cc3)CC3OC4OC5(C)CCC6C(C)CCC(C3C)C46OO5)OC3OC4(C)CCC1C32OO4 (stereo not shown)" classassignment=fulfilled
compound="CC1CCC2C(C)C(CC(CO)CC3OC4OC5(C)CCC6C(C)CCC(C3C)C46OO5)OC3OC4(C)CCC1C32OO4 (stereo not shown)" classassignment="not fulfilled"
compound="CC1CCC2C(C)C(CC(O)(CC3OC4OC5(C)CCC6C(C)CCC(C3C)C46OO5)CS(=O)(=O)c3ccc(C(=O)O)cc3)OC3OC4(C)CCC1C32OO4 (stereo not shown) [Compound 10c]" classassignment=fulfilled

IN: hey, is Log10GI50 for CC1CCC2C(C)C(CC(O)(CO)CC3OC4OC5(C)CCC6C(C)CCC(C3C)C46OO5)OC3OC4(C)CCC1C32OO4 (stereo not shown) lower than -7 or not?
OUT: not fulfilled

IN: Regarding C[C@@H]1CC[C@H]2[C@@H](C)C(=O)O[C@@H]3O[C@]4(C)CC[C@@H]1[C@]32OO4 , kindly confirm whether its Log10GI50 is beneath -7.
OUT: not fulfilled

* * *

- Tested on: MOLT-4
- measurementSetup: Leukemia, MOLT-4
endpointLabel: Log10GI50

Known results for compounds:
compound="CC(=O)O[C@H]1C(=O)[C@@]2(C)[C@H]([C@H](OC(=O)c3ccccc3)[C@]3(O)C[C@H](OC(=O)[C@H](O)[C@@H](NC(=O)c4ccccc4)c4ccccc4)C(C)=C1C3(C)C)[C@]1(OC(C)=O)CO[C@@H]1C[C@@H]2O [Paclitaxel, paclitaxel, reference compound]" reported=−11.07
compound="CC1CCC2C(C)C(CC(CO)CC3OC4OC5(C)CCC6C(C)CCC(C3C)C46OO5)OC3OC4(C)CCC1C32OO4 (centres unmarked)" reported=−7.92

Each compound below has a recorded value; state its Log10GI50.
1. C[C@@H]1CC[C@H]2[C@@H](C)C(CC(O)(CC3OC4O[C@]5(C)CC[C@H]6[C@H](C)CC[C@@H]([C@H]3C)C46OO5)c3ccc(C(=O)O)cc3)OC3O[C@]4(C)CCC1C32OO4 (some centres unmarked) [Compound 11b]
2. CC1CCC2C(C)C(CC(COC(=O)CCC(=O)O)CC3OC4OC5(C)CCC6C(C)CCC(C3C)C46OO5)OC3OC4(C)CCC1C32OO4 (centres unmarked) [Compound 8a, bis-trioxane primary succinate monoester]
3. CC1CCC2C(C)C(CC(O)(CO)CC3OC4OC5(C)CCC6C(C)CCC(C3C)C46OO5)OC3OC4(C)CCC1C32OO4 (centres unmarked)
4. CC1CCC2C(C)C(CC(COCC(=O)O)CC3OC4OC5(C)CCC6C(C)CCC(C3C)C46OO5)OC3OC4(C)CCC1C32OO4 (centres unmarked) [Compound 12b, bis-trioxane O-acetic acid]
5. C[C@@H]1CC[C@H]2[C@@H](C)C(CC(O)(COC(=O)CCC(=O)O)CC3OC4O[C@]5(C)CC[C@H]6[C@H](C)CC[C@@H]([C@H]3C)C46OO5)OC3O[C@]4(C)CCC1C32OO4 (some centres unmarked) [Compound 9, tertiary alcohol primary succinate ester]

OUT:
1: <−8.30; 2: −8.18; 3: <−8.00; 4: −7.66; 5: −5.15

IN: Look up Log10GI50: C[C@@H]1CC[C@H]2[C@@H](C)C(=O)O[C@@H]3O[C@]4(C)CC[C@@H]1[C@]32OO4
OUT: −4.73

* * *

- Test system: TK-10
- testProtocol: NCI 60 cell line panel screen (SRB)
- Type: cell-based, human
- measurementSetup: Renal Cancer, TK-10
Please respond with reported Log10GI50 for every item in the list.
One number for each entry.

These recorded examples may help you get a feel for the data.
compound="CC1CCC2C(C)C(CC(COCC(=O)O)CC3OC4OC5(C)CCC6C(C)CCC(C3C)C46OO5)OC3OC4(C)CCC1C32OO4 (stereo not drawn) [Compound 12b, bis-trioxane O-acetic acid]" measurementtarget=TK-10 reported=−7.22
compound="CC1CCC2C(C)C(CC(O)(CO)CC3OC4OC5(C)CCC6C(C)CCC(C3C)C46OO5)OC3OC4(C)CCC1C32OO4 (stereo not drawn)" measurementtarget=TK-10 reported=−4.91

# evaluate next
IN: Given C[C@@H]1CC[C@H]2[C@@H](C)C(CC(O)(CC3OC4O[C@]5(C)CC[C@H]6[C@H](C)CC[C@@H]([C@H]3C)C46OO5)c3ccc(C(=O)O)cc3)OC3O[C@]4(C)CCC1C32OO4 (stereo partly drawn) [Compound 11b] , state its recorded Log10GI50.
OUT: −7.81

* * *

Please respond with reported Log10TGI50 for every item in the list.
- System: 786-0
- testProtocol: NCI 60 cell line panel screen (SRB)
- Type: cell-based, human
- measurementSetup: 786-0 (Renal Cancer); TGI: PG=0
One number for each entry, in log10M.

compound="CC1CCC2C(C)C(CC(O)(CO)CC3OC4OC5(C)CCC6C(C)CCC(C3C)C46OO5)OC3OC4(C)CCC1C32OO4 (stereo not drawn)" endpointlabel=Log10TGI50 reported=−4.36
compound="CC1CCC2C(C)C(CC(CO)CC3OC4OC5(C)CCC6C(C)CCC(C3C)C46OO5)OC3OC4(C)CCC1C32OO4 (stereo not drawn)" endpointlabel=Log10TGI50 reported=−4.83
compound="CC1CCC2C(C)C(CC(O)(CC3OC4OC5(C)CCC6C(C)CCC(C3C)C46OO5)CS(=O)(=O)c3ccc(C(=O)O)cc3)OC3OC4(C)CCC1C32OO4 (stereo not drawn) [Compound 10c]" endpointlabel=Log10TGI50 reported=−5.08

Next, consider the following compound.
IN: Value lookup for Log10TGI50; key = CC1CCC2C(C)C(CC(COC(=O)c3cc[n+]([O-])cc3)CC3OC4OC5(C)CCC6C(C)CCC(C3C)C46OO5)OC3OC4(C)CCC1C32OO4 (stereo not drawn)
OUT: −4.94

* * *

- Test system: HCT-116
- testProtocol: NCI 60 cell line panel screen (SRB)
- Format: cell-based, human
- measurementSetup: HCT-116 (Colon Cancer); LC50: PG=−50
endpointLabel: Log10LC50

// solved cases for Log10LC50 follow
compound="C[C@@H]1CC[C@H]2[C@@H](C)C(CC(O)(COC(=O)CCC(=O)O)CC3OC4O[C@]5(C)CC[C@H]6[C@H](C)CC[C@@H]([C@H]3C)C46OO5)OC3O[C@]4(C)CCC1C32OO4 (stereo partly drawn) [Compound 9, tertiary alcohol primary succinate ester]" reported=">−4.30 log10M"
compound=C[C@@H]1CC[C@H]2[C@@H](C)C(=O)O[C@@H]3O[C@]4(C)CC[C@@H]1[C@]32OO4 reported=">−4.00 log10M"
compound="CC1CCC2C(C)C(CC(COC(=O)c3cc[n+]([O-])cc3)CC3OC4OC5(C)CCC6C(C)CCC(C3C)C46OO5)OC3OC4(C)CCC1C32OO4 (stereo not drawn)" reported=">−4.30 log10M"
compound="C[C@@H]1CC[C@H]2[C@@H](C)C(CC(O)(CC3OC4O[C@]5(C)CC[C@H]6[C@H](C)CC[C@@H]([C@H]3C)C46OO5)c3ccc(C(=O)O)cc3)OC3O[C@]4(C)CCC1C32OO4 (stereo partly drawn) [Compound 11b]" reported=">−4.30 log10M"

Fill in Log10LC50 for each of the 5 compounds listed.
1. CC1CCC2C(C)C(CC(CO)CC3OC4OC5(C)CCC6C(C)CCC(C3C)C46OO5)OC3OC4(C)CCC1C32OO4 (stereo not drawn)
2. CC(=O)O[C@H]1C(=O)[C@@]2(C)[C@H]([C@H](OC(=O)c3ccccc3)[C@]3(O)C[C@H](OC(=O)[C@H](O)[C@@H](NC(=O)c4ccccc4)c4ccccc4)C(C)=C1C3(C)C)[C@]1(OC(C)=O)CO[C@@H]1C[C@@H]2O [Paclitaxel, paclitaxel, reference compound]
3. CC1CCC2C(C)C(CC(COC(=O)CCC(=O)O)CC3OC4OC5(C)CCC6C(C)CCC(C3C)C46OO5)OC3OC4(C)CCC1C32OO4 (stereo not drawn) [Compound 8a, bis-trioxane primary succinate monoester]
4. CC1CCC2C(C)C(CC(O)(CO)CC3OC4OC5(C)CCC6C(C)CCC(C3C)C46OO5)OC3OC4(C)CCC1C32OO4 (stereo not drawn)
5. CC1CCC2C(C)C(CC(O)(CC3OC4OC5(C)CCC6C(C)CCC(C3C)C46OO5)CS(=O)(=O)c3ccc(C(=O)O)cc3)OC3OC4(C)CCC1C32OO4 (stereo not drawn) [Compound 10c]

OUT:
−4.57 log10M
>−4.00 log10M
>−4.30 log10M
>−4.00 log10M
−4.72 log10M
